testSystem: CSBP/p38 (Homo sapiens)
Sequence (Q16539 whole entry): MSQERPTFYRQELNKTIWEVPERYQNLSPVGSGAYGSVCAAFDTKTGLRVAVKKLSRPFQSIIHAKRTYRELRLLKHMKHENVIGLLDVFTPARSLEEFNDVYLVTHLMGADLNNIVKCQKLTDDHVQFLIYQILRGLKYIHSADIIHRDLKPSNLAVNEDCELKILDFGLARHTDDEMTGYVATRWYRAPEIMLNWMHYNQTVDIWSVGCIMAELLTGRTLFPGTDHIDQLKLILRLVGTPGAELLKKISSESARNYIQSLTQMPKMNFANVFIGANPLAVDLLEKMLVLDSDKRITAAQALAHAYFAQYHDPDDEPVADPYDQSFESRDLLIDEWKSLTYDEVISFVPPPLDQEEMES
experimentNotes: CSBP/p38 Kinase Assay (32P transfer to EGFR-derived T669 peptide)
testSettings: 0.17 mM ATP, 0.67 mM T669 peptide, 2-4 nM yeast-expressed activated p38, 25 min at 37° C.
property: IC50 (µM)
Give just the number in µM; leave the unit off.

// fetch CSBP/p38 (Homo sapiens) IC50 for Cn1c(=O)ccc2c(-c3ccccc3)nccc21
5

// fetch CSBP/p38 (Homo sapiens) IC50 for O=c1ccc2c(-c3ccccc3)nccc2[nH]1 [Example 12, 5-Phenyl-1H-[1,6]naphthyridin-2-one]
13.3

// fetch CSBP/p38 (Homo sapiens) IC50 for O=c1ccc2c(-c3ccccc3)nccc2n1-c1ccccc1 [Example 10, 1,5-Diphenyl-1H-[1,6]naphthyridin-2-one]
0.2

// fetch CSBP/p38 (Homo sapiens) IC50 for O=c1ccc2c(-c3ccccc3)nccc2n1Cc1ccccc1
0.06
